Molecular target: UniProt:O42713
Assay: Inhibition of mushroom tyrosinase assessed as 3,4-dihydroxy-L-phenylalanine oxidation at 0.1 mM
Criterion: inhibition meeting or surpassing 20%. Met: satisfied. Not met: not satisfied.

COMPOUND	STUDY TARGET	ASSIGNED CATEGORY
O=Cc1ccc(O[C@@H]2O[C@H](CO)[C@@H](O)[C@H](O)[C@H]2O)cc1	UniProt:O42713	satisfied
CC1(C)O[C@@H]2[C@H](O)[C@@H](CO)O[C@@H](Oc3ccc(C=O)cc3)[C@@H]2O1	UniProt:O42713	not satisfied
CC(=O)OC[C@H]1O[C@@H](O[C@H]2[C@H](OC(C)=O)[C@@H](OC(C)=O)[C@H](Oc3ccc(C=O)cc3)O[C@@H]2COC(C)=O)[C@H](OC(C)=O)[C@@H](OC(C)=O)[C@H]1OC(C)=O	UniProt:O42713	not satisfied
COP(=O)(OC)OC[C@H]1O[C@@H](Oc2ccc(C=O)cc2)[C@H](O)[C@H](O)[C@@H]1O	UniProt:O42713	satisfied
COc1ccc(/C=C/C(=O)O)cc1	UniProt:O42713	satisfied
O=Cc1ccc(O)cc1 [4-HYDROXYBENZALDEHYDE]	UniProt:O42713	not satisfied

====

Biological target: Tyrosinase (Agaricus bisporus, UniProt O42713)
Sequence (O42713 whole entry): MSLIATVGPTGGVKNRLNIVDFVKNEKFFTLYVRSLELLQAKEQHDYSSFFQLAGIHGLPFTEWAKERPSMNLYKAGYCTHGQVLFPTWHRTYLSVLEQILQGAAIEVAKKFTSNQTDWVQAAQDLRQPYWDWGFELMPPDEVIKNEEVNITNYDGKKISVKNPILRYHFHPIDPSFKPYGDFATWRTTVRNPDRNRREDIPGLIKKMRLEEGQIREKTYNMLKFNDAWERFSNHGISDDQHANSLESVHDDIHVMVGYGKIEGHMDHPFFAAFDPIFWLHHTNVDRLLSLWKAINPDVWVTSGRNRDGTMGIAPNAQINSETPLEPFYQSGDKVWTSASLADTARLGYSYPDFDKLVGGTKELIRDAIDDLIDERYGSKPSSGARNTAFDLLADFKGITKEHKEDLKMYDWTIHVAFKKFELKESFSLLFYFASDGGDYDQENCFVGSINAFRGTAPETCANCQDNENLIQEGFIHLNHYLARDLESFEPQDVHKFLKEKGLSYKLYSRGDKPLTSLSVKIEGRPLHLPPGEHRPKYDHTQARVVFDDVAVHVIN
pIC50: −log10 of the molar value.
REPORTED METRIC: pIC50

SMILES NOTATION	MEASURED VALUE
CC(=O)OC[C@H]1O[C@@H](Oc2ccc(C=O)cc2)[C@H](OC(C)=O)[C@@H](OC(C)=O)[C@@H]1OC(C)=O	< 2.52
CC(=O)OC[C@H]1O[C@@H](O[C@H]2[C@H](OC(C)=O)[C@@H](OC(C)=O)[C@H](Oc3ccc(C=O)cc3)O[C@@H]2COC(C)=O)[C@H](OC(C)=O)[C@@H](OC(C)=O)[C@H]1OC(C)=O	< 2.52
O=Cc1ccc(O[C@@H]2OC[C@@H](OC(=O)c3ccccc3)[C@@H](OC(=O)c3ccccc3)[C@H]2OC(=O)c2ccccc2)cc1	< 2.52
